Target: T1, Fc gamma receptor RIIA H167 (human, UniProt P12318 36-218)
T1 construct: soluble SPR analyte
T1 sequence (looked up): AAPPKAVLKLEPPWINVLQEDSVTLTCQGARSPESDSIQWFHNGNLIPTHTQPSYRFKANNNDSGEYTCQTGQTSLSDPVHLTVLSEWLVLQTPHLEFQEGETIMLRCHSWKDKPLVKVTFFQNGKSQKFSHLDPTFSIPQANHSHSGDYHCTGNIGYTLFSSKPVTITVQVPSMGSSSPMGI
Test: SPR, Fc captured, receptor as analyte

binder: TSC 1007 (other, IgG1 Fc with E233P, L234A, L235A, deletion of G236, G237A, K322A (EU); also called PAAdel TSC01007) EPKSSDKTHTCPPCPAPPAAAPSVFLFPPKPKDTLMISRTPEVTCVVVDVSHEDPEVKFNWYVDGVEVHNAKTKPREEQYNSTYRVVSVLTVLHQDWLNGKEYKCAVSNKALPAPIEKTISKAKGQPREPQVYTLPPSRDELTKNQVSLTCLVKGFYPSDIAVEWESNGQPENNYKTTPPVLDSDGSFFLYSKLTVDKSRWQQGNVFSCSVMHEALHNHYTQKSLSLSPG
binding result: no binding
--
binder: TSC 1004 (other, IgG1 Fc with E233P, L234V, L235A, G237A, K322A (EU); also called PVAG TSC01004) EPKSSDKTHTCPPCPAPPVAGAPSVFLFPPKPKDTLMISRTPEVTCVVVDVSHEDPEVKFNWYVDGVEVHNAKTKPREEQYNSTYRVVSVLTVLHQDWLNGKEYKCAVSNKALPAPIEKTISKAKGQPREPQVYTLPPSRDELTKNQVSLTCLVKGFYPSDIAVEWESNGQPENNYKTTPPVLDSDGSFFLYSKLTVDKSRWQQGNVFSCSVMHEALHNHYTQKSLSLSPG
binding result: no binding
--
binder: TSC 1005 (other, IgG1 Fc with E233P, L234V, L235A, deletion of G236, G237A, K322A (EU); also called PVAdel TSC01005) EPKSSDKTHTCPPCPAPPVAAPSVFLFPPKPKDTLMISRTPEVTCVVVDVSHEDPEVKFNWYVDGVEVHNAKTKPREEQYNSTYRVVSVLTVLHQDWLNGKEYKCAVSNKALPAPIEKTISKAKGQPREPQVYTLPPSRDELTKNQVSLTCLVKGFYPSDIAVEWESNGQPENNYKTTPPVLDSDGSFFLYSKLTVDKSRWQQGNVFSCSVMHEALHNHYTQKSLSLSPG
binding result: no binding

Source listed as patent US20220242962A1.
